Where do the numbers come from? From paper PMC10885153.

Please go through the items and note down their solubility kinetic at 24 h.
Assay: physchem
Settings: pH 7.4, aqueous with cosolvent or surfactant or cyclodextrin, kinetic from dmso stock
Positions of bridges follow the written chain, without caps; N, C: chain ends. Non-standard residues stand in square brackets, D forms with d. Residues, ends and D or L forms follow the SMILES beside them. Cha = N[C@@H](CC1CCCCC1)C(=O)O; NMeAbu = CC[C@H](NC)C(=O)O; NMeC = CN[C@@H](CS)C(=O)O; NMeA = CN[C@@H](C)C(=O)O; Nva = CCC[C@H](N)C(=O)O; Abu = CC[C@H](N)C(=O)O; NEtG = CCNCC(=O)O
Give bare numbers, in µM.

compound	solubility kinetic at 24 h / µM
CCC[C@@H]1NC(=O)[C@H](C)N(C)C(=O)[C@H](CC(C)C)NC(=O)CSC[C@@H](C(=O)OCC)N(C)C(=O)[C@H](CC(C)C)NC(=O)[C@H](C)N(C)C(=O)[C@H](CC2CCCCC2)NC(=O)[C@H](CC)N(C)C(=O)[C@H]2CCCN2C1=O [LC09] ({CH2CO}-L[NMeA][Nva][dP][NMeAbu][Cha][NMeA]L[NMeC]-OEt; thioether N-9)	10
CCC[C@@H]1NC(=O)[C@H](C)N(C)C(=O)[C@H](CC(C)C)NC(=O)CSC[C@@H](C(=O)OCC)N(C)C(=O)[C@H](CC(C)C)NC(=O)[C@H](C)N(C)C(=O)[C@H](CC2CCCCC2)NC(=O)CN(CC)C(=O)[C@H]2CCCN2C1=O [LA09] ({CH2CO}-L[NMeA][Nva][dP][NEtG][Cha][NMeA]L[NMeC]-OEt; thioether N-9)	10
CCC[C@@H]1NC(=O)CN(CC)C(=O)[C@H](CC(C)C)NC(=O)CSC[C@@H](C(=O)OCC)N(C)C(=O)[C@H](CC(C)C)NC(=O)[C@H](C)N(C)C(=O)[C@H](CC2CCCCC2)NC(=O)[C@H](C)N(C)C(=O)[C@H]2CCCN2C1=O [LB09] ({CH2CO}-L[NEtG][Nva][dP][NMeA][Cha][NMeA]L[NMeC]-OEt; thioether N-9)	19

Now look at this entry.
Query (compound): CCOC(=O)[C@@H]1CSCC(=O)N[C@@H](CC(C)C)C(=O)N(CC)CC(=O)N[C@@H](CC(C)C)C(=O)N2CCC[C@@H]2C(=O)N(C)[C@@H](C)C(=O)N[C@@H](CC)C(=O)N(C)[C@@H](C)C(=O)N[C@@H](CC(C)C)C(=O)N1C [LB02] ({CH2CO}-L[NEtG]L[dP][NMeA][Abu][NMeA]L[NMeC]-OEt; thioether N-9) ; field requested: solubility kinetic at 24 h
126
